Cited source: ChEMBL document CHEMBL1137149

- TARGET_OR_TEST_SYSTEM: Glucocorticoid receptor (Homo sapiens)
- Sequence (P04150 whole entry): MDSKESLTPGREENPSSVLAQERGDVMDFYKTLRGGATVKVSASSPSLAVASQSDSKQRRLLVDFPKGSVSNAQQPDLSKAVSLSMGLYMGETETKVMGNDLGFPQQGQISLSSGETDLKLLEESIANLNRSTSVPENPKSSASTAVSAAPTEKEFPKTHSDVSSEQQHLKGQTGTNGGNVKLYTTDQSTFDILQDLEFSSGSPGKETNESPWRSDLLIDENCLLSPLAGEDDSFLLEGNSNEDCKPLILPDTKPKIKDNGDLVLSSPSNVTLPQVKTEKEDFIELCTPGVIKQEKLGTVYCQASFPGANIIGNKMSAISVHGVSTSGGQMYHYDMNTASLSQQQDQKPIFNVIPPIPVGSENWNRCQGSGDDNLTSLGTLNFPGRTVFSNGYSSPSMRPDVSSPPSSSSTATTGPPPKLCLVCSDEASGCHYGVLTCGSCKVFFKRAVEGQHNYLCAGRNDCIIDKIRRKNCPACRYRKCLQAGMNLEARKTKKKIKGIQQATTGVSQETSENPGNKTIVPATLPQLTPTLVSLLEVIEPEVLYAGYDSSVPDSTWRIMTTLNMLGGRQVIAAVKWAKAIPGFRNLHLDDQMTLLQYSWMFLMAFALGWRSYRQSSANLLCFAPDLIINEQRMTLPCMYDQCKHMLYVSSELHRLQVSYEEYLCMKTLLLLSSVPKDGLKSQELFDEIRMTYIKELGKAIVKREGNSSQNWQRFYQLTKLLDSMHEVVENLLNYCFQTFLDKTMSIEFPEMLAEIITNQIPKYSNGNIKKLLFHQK
pIC50: −log10 of the molar value.
1.0 means recorded pIC50 is 7 or above; 0.0 means it is below 7.

SMILES_TEXT	TARGET_OR_TEST_SYSTEM	LABEL_CLASS
Cc1c(NS(C)(=O)=O)cccc1N(Cc1ccc(Oc2ccc(CCC(=O)NCCO[C@@H]3CC[C@]4(C)[C@H](C3)C[C@H](O)[C@@H]3[C@@H]4C[C@@H](O)[C@]4(C)[C@H]3CC[C@H]4[C@@H](C)CCC(=O)O)cc2)cc1)Cc1ccc(F)cc1F	Glucocorticoid receptor (Homo sapiens)	0.0
Cc1c(NS(C)(=O)=O)cccc1N(Cc1ccccc1)Cc1ccc(CCC(=O)NCCO[C@H]2CC[C@@]3(C)[C@@H](C2)C[C@@H](O)[C@@H]2[C@@H]3C[C@H](O)[C@]3(C)[C@@H]([C@H](C)CCC(=O)O)CC[C@@H]23)cc1	Glucocorticoid receptor (Homo sapiens)	0.0
Cc1c(NS(C)(=O)=O)cccc1N(Cc1ccccc1)Cc1ccc(Oc2ccc(CCC(=O)NCCO[C@@H]3CC[C@]4(C)[C@H](C3)C[C@H](O)[C@@H]3[C@@H]4C[C@@H](O)[C@]4(C)[C@H]3CC[C@H]4[C@@H](C)CCC(=O)O)cc2)cc1	Glucocorticoid receptor (Homo sapiens)	1.0

Exercise: Is reported pIC50 greater than or equal to 7 here: `Cc1c(NS(C)(=O)=O)cccc1N(Cc1ccccc1)Cc1ccc(Oc2cccc(OCC(=O)NCCO[C@H]3CC[C@@]4(C)[C@@H](C3)C[C@@H](O)[C@@H]3[C@@H]4C[C@H](O)[C@]4(C)[C@@H]([C@H](C)CCC(=O)O)CC[C@@H]34)c2)cc1`
Key: 1.0

Exercise: Is reported pIC50 greater than or equal to 7 here: `Cc1c(NS(C)(=O)=O)cccc1N(Cc1ccc(CCCC(=O)NCCO[C@@H]2CC[C@]3(C)[C@H](C2)C[C@H](O)[C@@H]2[C@@H]3C[C@@H](O)[C@]3(C)[C@H]2CC[C@H]3[C@@H](C)CCC(=O)O)cc1)Cc1ccc(Oc2ccccc2)cc1`
Key: 0.0

Exercise: Is reported pIC50 greater than or equal to 7 here: `Cc1c(NS(C)(=O)=O)cccc1N(Cc1ccccc1)Cc1ccc(Oc2ccc(CCCC(=O)NCCO[C@H]3CC[C@@]4(C)[C@@H](C3)C[C@@H](O)[C@@H]3[C@@H]4C[C@H](O)[C@]4(C)[C@@H]([C@H](C)CCC(=O)O)CC[C@@H]34)cc2)cc1`
Key: 1.0

----------
- TARGET_OR_TEST_SYSTEM: UniProtKB P04150
- Format: functional
- Description: Inhibition of glucocorticoid receptor Dexamethasone response in reporter gene assay
I'd be grateful if you could share measured pIC50 for these entries.
One number for each entry, as −log10 of the molar value.

In the examples that follow, each entry is paired with its recorded pIC50.
SMILES_TEXT	pIC50
Cc1c(NS(C)(=O)=O)cccc1N(Cc1ccccc1)Cc1ccc(Oc2ccc(CCC(=O)NCCO[C@@H]3CC[C@]4(C)[C@H](C3)C[C@H](O)[C@@H]3[C@@H]4C[C@@H](O)[C@]4(C)[C@H]3CC[C@H]4[C@@H](C)CCC(=O)O)cc2)cc1	6.35
Cc1c(NS(C)(=O)=O)cccc1N(Cc1ccccc1)Cc1ccc(CCC(=O)NCCO[C@H]2CC[C@@]3(C)[C@@H](C2)C[C@@H](O)[C@@H]2[C@@H]3C[C@H](O)[C@]3(C)[C@@H]([C@H](C)CCC(=O)O)CC[C@@H]23)cc1	6.51
Cc1c(NS(C)(=O)=O)cccc1N(Cc1ccccc1)Cc1ccc(Oc2cccc(CCCC(=O)NCCO[C@@H]3CC[C@]4(C)[C@H](C3)C[C@H](O)[C@@H]3[C@@H]4C[C@@H](O)[C@]4(C)[C@H]3CC[C@H]4[C@@H](C)CCC(=O)O)c2)cc1	6.41

Now for a further molecule.
Reported UniProtKB P04150 pIC50 for item `Cc1c(NS(C)(=O)=O)cccc1N(Cc1ccccc1)Cc1ccc(Oc2cccc(OCC(=O)NCCO[C@H]3CC[C@@]4(C)[C@@H](C3)C[C@@H](O)[C@@H]3[C@@H]4C[C@H](O)[C@]4(C)[C@@H]([C@H](C)CCC(=O)O)CC[C@@H]34)c2)cc1` was 6.23
